# Test target: Luciferin 4-monooxygenase (Photinus pyralis, UniProt P08659)
# Sequence (P08659 whole entry): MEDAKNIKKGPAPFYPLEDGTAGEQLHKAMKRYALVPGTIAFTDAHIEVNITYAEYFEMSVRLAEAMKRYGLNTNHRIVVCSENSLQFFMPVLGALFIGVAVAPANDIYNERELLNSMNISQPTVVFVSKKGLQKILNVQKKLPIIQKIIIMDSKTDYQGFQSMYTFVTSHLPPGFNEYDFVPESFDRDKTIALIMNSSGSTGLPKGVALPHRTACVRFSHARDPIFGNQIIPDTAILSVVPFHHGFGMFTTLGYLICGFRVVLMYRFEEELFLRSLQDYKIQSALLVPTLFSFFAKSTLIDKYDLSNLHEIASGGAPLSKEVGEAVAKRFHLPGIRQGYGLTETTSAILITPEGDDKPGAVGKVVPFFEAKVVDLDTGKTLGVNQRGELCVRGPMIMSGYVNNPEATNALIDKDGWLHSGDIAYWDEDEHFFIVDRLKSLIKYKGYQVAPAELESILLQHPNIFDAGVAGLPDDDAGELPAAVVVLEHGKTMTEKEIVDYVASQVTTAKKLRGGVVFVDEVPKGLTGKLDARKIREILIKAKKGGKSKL
# Experimental protocol: Inhibition of recombinant firefly luciferase after 20 mins by luminescence assay
Label key: 1 means IC50 under 3 nM; 0 means IC50 of 3 nM or more.

Query block: Regarding COc1ccccc1CC1CC(c2ccc(Cl)cc2)=NO1 (racemic) , kindly confirm whether its IC50 is beneath 3 nM.
Result block: 0

Query block: Now consider COc1ccccc1C1=NO[C@@H](Cc2ccccc2)C1 and answer again.
Result block: 0

Query block: Same read-out for COc1ccccc1C1=NO[C@H](Cc2ccccc2)O1 ?
Result block: 1

Query block: And then Clc1ccc(C2=NOC(CCc3ccccc3)C2)cc1 (racemic) , what is it?
Result block: 0

***
Query block: Lab log: compare recorded IC50 with 3 nM; is it strictly lower for Clc1ccccc1C1=NOC(Cc2ccccc2)O1 (racemic) ?
Result block: 1

Query block: Same lookup for COc1ccccc1C1=NO[C@H](Cc2ccccc2)C1 , please.
Result block: 1

Query block: Proceed to COc1ccc(C2=NO[C@H](Cc3cccc(OC)c3)C2)cc1
Result block: 1

Query block: Repeat for the following compound: COc1ccc(C2=NO[C@H](Cc3ccccc3)O2)cc1
Result block: 1

Query block: Likewise for Clc1ccc(C2=NO[C@H](Cc3ccccc3)C2)cc1 ?
Result block: 1

Query block: Same again, this time with Oc1cccc(C2=NO[C@H](Cc3ccccc3)C2)c1
Result block: 1

Query block: Now the same for COc1ccc(C2=NO[C@H](Cc3ccc(F)cc3)C2)cc1
Result block: 0

Query block: Query Fc1cccc(C2=NO[C@@H](Cc3ccccc3)C2)c1 next
Result block: 0

Query block: Also need CCc1ccc(C[C@H]2CC(c3ccc(Cl)cc3)=NO2)cc1 , thanks.
Result block: 0

Query block: Cool, now COc1ccc(C2=NO[C@@H](Cc3ccccc3OC)C2)cc1
Result block: 0

Query block: Proceed to COc1ccc(C2=NO[C@H](CCc3ccccc3)C2)cc1
Result block: 0

Query block: Now try Oc1cccc(C2=NO[C@@H](Cc3ccccc3)C2)c1 .
Result block: 0

Query block: Oc1ccccc1C1=NO[C@H](Cc2ccccc2)C1 ?
Result block: 1

Query block: // next record Fc1ccccc1C1=NO[C@@H](Cc2ccccc2)C1
Result block: 0

Query block: // query: Fc1ccc(C2=NO[C@H](Cc3ccccc3)C2)cc1
Result block: 1

Query block: Try this compound next: Fc1ccc(C[C@H]2CC(c3ccc(Cl)cc3)=NO2)cc1
Result block: 0

Query block: Same question, Clc1cccc(C2=NOC(Cc3ccccc3)C2)c1 (racemic) this time
Result block: 0

Query block: Field entry: O=[N+]([O-])c1ccc(C2=NOC(Cc3ccccc3)C2)cc1 (racemic)
Result block: 1

Query block: Next up: COc1cccc(C2=NO[C@@H](Cc3ccccc3)C2)c1
Result block: 0

Query block: // repeat for Fc1ccccc1C1=NOC(Cc2ccccc2)O1 (racemic) and report
Result block: 1

Query block: Moving on to Fc1ccc(C2=NO[C@@H](Cc3ccccc3)C2)cc1
Result block: 0
